test: Cytotoxicity against mouse RAW264.7 cells assessed as inhibition of cell proliferation at 50 ug/ml after 48 hrs by MTT assay; assay type: toxicity
fulfilled means recorded inhibition at 48 h, 50 ug/ml is 10% or above; not fulfilled means it is below 10%.

A selection of reference data follows.
| COMPOUND | ASSIGNED LABEL |
| --- | --- |
| Cc1ccc(Nc2nc(-c3ccccc3)nc3sc4c(c23)CCCC4)cc1 | fulfilled |
| CCc1nc(Nc2ccccc2)c2c3c(sc2n1)CCCC3 | not fulfilled |
| CCc1nc(Nc2ccc(F)cc2)c2c3c(sc2n1)CCCC3 | fulfilled |
| Cc1ccc(C)c(Nc2nc(C3CC3)nc3sc4c(c23)CCCC4)c1 | fulfilled |
| Fc1ccc(Nc2nc(C3CC3)nc3sc4c(c23)CCCC4)cc1 | not fulfilled |

Decide: inhibition at 48 h, 50 ug/ml of Cc1ccc(C)c(Nc2nc(-c3ccccc3)nc3sc4c(c23)CCCC4)c1 >= 10%?
not fulfilled

Decide: inhibition at 48 h, 50 ug/ml of CCc1nc(Nc2cc(C)ccc2C)c2c3c(sc2n1)CCCC3 >= 10%?
fulfilled

Decide: inhibition at 48 h, 50 ug/ml of c1ccc(CNc2nc(-c3ccccc3)nc3sc4c(c23)CCCC4)cc1 >= 10%?
fulfilled

Decide: inhibition at 48 h, 50 ug/ml of Cc1ccc(Nc2nc(C3CC3)nc3sc4c(c23)CCCC4)cc1 >= 10%?
fulfilled

Decide: inhibition at 48 h, 50 ug/ml of CCc1nc(Nc2ccc(C)cc2)c2c3c(sc2n1)CCCC3 >= 10%?
fulfilled

Decide: inhibition at 48 h, 50 ug/ml of Brc1ccc(Nc2nc(C3CC3)nc3sc4c(c23)CCCC4)cc1 >= 10%?
fulfilled

Decide: inhibition at 48 h, 50 ug/ml of c1ccc(Nc2nc(C3CC3)nc3sc4c(c23)CCCC4)cc1 >= 10%?
not fulfilled

Decide: inhibition at 48 h, 50 ug/ml of Brc1ccc(Nc2nc(-c3ccccc3)nc3sc4c(c23)CCCC4)cc1 >= 10%?
fulfilled

Decide: inhibition at 48 h, 50 ug/ml of c1ccc(CCNc2nc(C3CC3)nc3sc4c(c23)CCCC4)cc1 >= 10%?
fulfilled

Decide: inhibition at 48 h, 50 ug/ml of Cc1cccc(C)c1Nc1nc(-c2ccccc2)nc2sc3c(c12)CCCC3 >= 10%?
fulfilled

Decide: inhibition at 48 h, 50 ug/ml of CO[C@H]1/C=C/O[C@@]2(C)Oc3c(C)c(O)c4c(O)c(c(/C=N/N5CCN(C)CC5)c(O)c4c3C2=O)NC(=O)/C(C)=C\C=C\[C@H](C)[C@H](O)[C@@H](C)[C@@H](O)[C@@H](C)[C@H](OC(C)=O)[C@@H]1C [RIFAMPIN] >= 10%?
not fulfilled

Decide: inhibition at 48 h, 50 ug/ml of Cc1ccc(Nc2nc(-c3ccccc3)nc3sc4c(c23)CCCC4)c(C)c1 >= 10%?
not fulfilled

Decide: inhibition at 48 h, 50 ug/ml of NNC(=O)c1ccncc1 [ISONIAZID] >= 10%?
fulfilled

====

system: Mycobacterium tuberculosis; test: Antimycobacterial activity against Mycobacterium tuberculosis H37Rv after 7 days by MABA; type: functional; settings: 168 h
Label y when MIC is strictly below 30 µM; otherwise label n.

A selection of reference data follows.
| MOLECULE | MEASUREMENT TARGET | ASSIGNED LABEL |
| --- | --- | --- |
| COc1ccc(Nc2nc(-c3ccccc3)nc3sc4c(c23)CCCC4)cc1 | Mycobacterium tuberculosis | y |
| c1ccc(CNc2nc(-c3ccccc3)nc3sc4c(c23)CCCC4)cc1 | Mycobacterium tuberculosis | n |
| CO[C@H]1/C=C/O[C@@]2(C)Oc3c(C)c(O)c4c(O)c(c(/C=N/N5CCN(C)CC5)c(O)c4c3C2=O)NC(=O)/C(C)=C\C=C\[C@H](C)[C@H](O)[C@@H](C)[C@@H](O)[C@@H](C)[C@H](OC(C)=O)[C@@H]1C [RIFAMPIN] | Mycobacterium tuberculosis | y |
| NNC(=O)c1ccncc1 [ISONIAZID] | Mycobacterium tuberculosis | y |
| Brc1ccc(Nc2nc(C3CC3)nc3sc4c(c23)CCCC4)cc1 | Mycobacterium tuberculosis | y |
| Cc1ccc(Nc2nc(-c3ccccc3)nc3sc4c(c23)CCCC4)c(C)c1 | Mycobacterium tuberculosis | y |

Regarding COc1ccc(Nc2nc(C3CC3)nc3sc4c(c23)CCCC4)cc1 , kindly confirm whether its MIC is beneath 30 µM.
y

Regarding CCc1nc(Nc2ccc(C)cc2)c2c3c(sc2n1)CCCC3 , kindly confirm whether its MIC is beneath 30 µM.
n

Regarding CCc1nc(Nc2ccc(C)cc2C)c2c3c(sc2n1)CCCC3 , kindly confirm whether its MIC is beneath 30 µM.
n

Regarding c1ccc(CCNc2nc(-c3ccccc3)nc3sc4c(c23)CCCC4)cc1 , kindly confirm whether its MIC is beneath 30 µM.
n

Regarding CCc1nc(Nc2ccc(Cl)cc2)c2c3c(sc2n1)CCCC3 , kindly confirm whether its MIC is beneath 30 µM.
y

Regarding Clc1ccc(Nc2nc(-c3ccccc3)nc3sc4c(c23)CCCC4)cc1 , kindly confirm whether its MIC is beneath 30 µM.
n

Regarding Fc1ccc(Nc2nc(C3CC3)nc3sc4c(c23)CCCC4)cc1 , kindly confirm whether its MIC is beneath 30 µM.
n

Regarding Clc1ccc(Nc2nc(C3CC3)nc3sc4c(c23)CCCC4)cc1 , kindly confirm whether its MIC is beneath 30 µM.
y

Regarding CCc1nc(Nc2ccc(F)cc2)c2c3c(sc2n1)CCCC3 , kindly confirm whether its MIC is beneath 30 µM.
n

====

assay: Inhibition of Mycobacterium tuberculosis ADH assessed as decrease in conversion of L-alanine to pyruvate by measuring NADH by spectrophotometry; design: species or system Mycobacterium tuberculosis H37Rv
ENDPOINT: pIC50
Keep it numeric: pIC50 is minus log10 of the concentration in mol/L.

What value of pIC50 has been recorded for this entry: c1ccc(CNc2nc(-c3ccccc3)nc3sc4c(c23)CCCC4)cc1
5.01

What value of pIC50 has been recorded for this entry: Brc1ccc(Nc2nc(C3CC3)nc3sc4c(c23)CCCC4)cc1
5.05

What value of pIC50 has been recorded for this entry: CCc1nc(Nc2ccc(F)cc2)c2c3c(sc2n1)CCCC3
5.22

What value of pIC50 has been recorded for this entry: CCc1nc(Nc2c(C)cccc2C)c2c3c(sc2n1)CCCC3
5.30

What value of pIC50 has been recorded for this entry: CCc1nc(Nc2ccc(C)cc2C)c2c3c(sc2n1)CCCC3
5.13

What value of pIC50 has been recorded for this entry: Cc1cccc(C)c1Nc1nc(-c2ccccc2)nc2sc3c(c12)CCCC3
5.05

What value of pIC50 has been recorded for this entry: CCc1nc(Nc2ccccc2)c2c3c(sc2n1)CCCC3
4.82

====

# key: entry, value: MIC
test system: Mycobacterium tuberculosis; experiment: Antimycobacterial activity against Mycobacterium tuberculosis H37Rv after 7 days by MABA; type: functional; settings: 168 h
Kindly write the number and append the unit.

Here's what some known entries look like.
| CHEM SMILES | ENDPOINT | READOUT VALUE |
| --- | --- | --- |
| Cc1ccc(Nc2nc(C3CC3)nc3sc4c(c23)CCCC4)cc1 | MIC | 74.5 µM |
| CCc1nc(Nc2ccc(OC)cc2)c2c3c(sc2n1)CCCC3 | MIC | 73.7 µM |
| Cc1cccc(C)c1Nc1nc(-c2ccccc2)nc2sc3c(c12)CCCC3 | MIC | 8.11 µM |
| Cc1ccc(Nc2nc(-c3ccccc3)nc3sc4c(c23)CCCC4)cc1 | MIC | 33.6 µM |
| Cc1ccc(C)c(Nc2nc(C3CC3)nc3sc4c(c23)CCCC4)c1 | MIC | 35.8 µM |

Turning to the following molecule.
What value of MIC has been recorded for this entry: c1ccc(CNc2nc(C3CC3)nc3sc4c(c23)CCCC4)cc1
18.6 µM

====

# key: entry, value: MIC
tested on: Mycobacterium tuberculosis; assay: Antimycobacterial activity against Mycobacterium tuberculosis H37Rv after 7 days by MABA; type: functional; conditions: 168 h
Kindly write the number and append the unit.

Requested read-out MIC, target or system Mycobacterium tuberculosis, entry CCc1nc(Nc2ccc(Br)cc2)c2c3c(sc2n1)CCCC3
32.2 µM

Requested read-out MIC, target or system Mycobacterium tuberculosis, entry CC[C@@H](CO)NCCN[C@@H](CC)CO
7.64 µM

Requested read-out MIC, target or system Mycobacterium tuberculosis, entry CCc1nc(NCCc2ccccc2)c2c3c(sc2n1)CCCC3
37 µM

Requested read-out MIC, target or system Mycobacterium tuberculosis, entry CCc1nc(NCc2ccccc2)c2c3c(sc2n1)CCCC3
38.6 µM

Requested read-out MIC, target or system Mycobacterium tuberculosis, entry Fc1ccc(Nc2nc(-c3ccccc3)nc3sc4c(c23)CCCC4)cc1
33.3 µM
